Assign DC50 to each entry below.
molecular target: SMARCA2 (Homo sapiens, UniProt P51531); test: MSD SMARCA2 degradation in A549 cell line; assay type: cell-based; details: A549 cells, 24 h, read-out: SMARCA2 MSD A549 degradation 24 h: Average external-Abs DC50
Sequence (P51531 whole entry): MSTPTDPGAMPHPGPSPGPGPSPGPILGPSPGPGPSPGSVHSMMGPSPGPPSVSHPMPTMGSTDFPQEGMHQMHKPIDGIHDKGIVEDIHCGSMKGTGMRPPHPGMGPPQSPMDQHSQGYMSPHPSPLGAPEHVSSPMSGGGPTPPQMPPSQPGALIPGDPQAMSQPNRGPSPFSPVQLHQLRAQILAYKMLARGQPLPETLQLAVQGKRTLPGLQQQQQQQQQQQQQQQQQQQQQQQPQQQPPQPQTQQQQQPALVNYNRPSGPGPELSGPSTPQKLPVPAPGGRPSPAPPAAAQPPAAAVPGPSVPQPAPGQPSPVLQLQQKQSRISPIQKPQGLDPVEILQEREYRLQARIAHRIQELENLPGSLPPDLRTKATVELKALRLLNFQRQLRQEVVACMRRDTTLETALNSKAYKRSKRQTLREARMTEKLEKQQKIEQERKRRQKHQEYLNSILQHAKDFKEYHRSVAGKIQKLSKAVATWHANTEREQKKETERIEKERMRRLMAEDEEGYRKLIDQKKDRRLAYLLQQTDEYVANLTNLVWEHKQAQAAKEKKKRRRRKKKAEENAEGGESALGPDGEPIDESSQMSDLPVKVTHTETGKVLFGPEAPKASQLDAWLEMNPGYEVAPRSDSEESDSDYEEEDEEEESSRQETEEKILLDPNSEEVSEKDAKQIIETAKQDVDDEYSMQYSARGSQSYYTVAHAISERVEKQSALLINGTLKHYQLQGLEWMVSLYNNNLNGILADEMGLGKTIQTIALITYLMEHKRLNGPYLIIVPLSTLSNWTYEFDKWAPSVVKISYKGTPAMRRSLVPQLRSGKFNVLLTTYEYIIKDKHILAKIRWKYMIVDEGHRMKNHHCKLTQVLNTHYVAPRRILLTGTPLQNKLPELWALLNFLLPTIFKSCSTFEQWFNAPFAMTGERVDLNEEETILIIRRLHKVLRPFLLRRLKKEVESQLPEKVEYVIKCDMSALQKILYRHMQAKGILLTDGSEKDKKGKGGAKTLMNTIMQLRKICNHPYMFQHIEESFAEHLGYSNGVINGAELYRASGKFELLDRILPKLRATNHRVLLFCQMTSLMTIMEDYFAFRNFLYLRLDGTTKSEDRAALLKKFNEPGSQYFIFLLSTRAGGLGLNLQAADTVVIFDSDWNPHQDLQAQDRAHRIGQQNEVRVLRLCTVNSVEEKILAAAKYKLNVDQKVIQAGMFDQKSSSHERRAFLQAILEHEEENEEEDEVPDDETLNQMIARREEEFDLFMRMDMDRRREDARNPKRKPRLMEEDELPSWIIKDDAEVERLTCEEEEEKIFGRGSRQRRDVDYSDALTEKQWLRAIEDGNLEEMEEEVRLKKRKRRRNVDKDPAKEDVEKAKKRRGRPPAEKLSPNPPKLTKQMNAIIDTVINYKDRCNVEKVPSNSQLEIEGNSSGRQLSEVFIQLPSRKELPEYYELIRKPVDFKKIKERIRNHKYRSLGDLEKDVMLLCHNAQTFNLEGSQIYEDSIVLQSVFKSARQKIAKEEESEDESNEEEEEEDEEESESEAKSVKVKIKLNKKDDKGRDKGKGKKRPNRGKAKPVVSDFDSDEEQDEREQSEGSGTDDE

Here's what some known entries look like.
molecule: Cc1ncsc1-c1ccc([C@H](C)NC(=O)[C@@H]2C[C@@H](O)CN2C(=O)[C@@H](NC(=O)[C@H]2CC[C@H](c3cnc(N4C5CCC4CN(c4cc(-c6ccccc6O)nnc4N)C5)nc3)CC2)C(C)(C)C)cc1
DC50: < 100 nM

molecule: Nc1nnc(-c2ccccc2O)cc1-c1cnn(C2CCN(C3CCC(CNc4cccc5c4C(=O)N(C4CCC(=O)NC4=O)C5=O)CC3)CC2)c1 (centres unmarked)
DC50: < 100 nM

molecule: NCC#Cc1nccc(N2C3CCC2CN(c2cc(-c4ccccc4O)nnc2N)C3)n1
DC50: > 1000 nM

Could you tell me DC50 for each of these molecules? They are listed below.
1. Cc1ncsc1-c1ccc(CNC(=O)[C@@H]2C[C@@H](O)CN2C(=O)[C@@H](NC(=O)[C@H]2CC[C@H](Cc3cnc(N4C5CCC4CN(c4cc(-c6ccccc6O)nnc4N)C5)nc3)CC2)C(C)(C)C)c(C(F)(F)F)c1
2. Cc1ncsc1-c1ccc(CNC(=O)[C@@H]2C[C@@H](O)CN2C(=O)[C@@H](NC(=O)[C@H]2CC[C@@H](CN3CCC(n4cc(-c5cc(-c6ccccc6O)nnc5N)cn4)CC3)CC2)C(C)(C)C)cc1

Resp:
["100 to 500 nM", "100 to 500 nM"]
